target: UniProt P56658; assay: Inhibition of calf intestinal adenosine deaminase
Sequence (P56658 whole entry): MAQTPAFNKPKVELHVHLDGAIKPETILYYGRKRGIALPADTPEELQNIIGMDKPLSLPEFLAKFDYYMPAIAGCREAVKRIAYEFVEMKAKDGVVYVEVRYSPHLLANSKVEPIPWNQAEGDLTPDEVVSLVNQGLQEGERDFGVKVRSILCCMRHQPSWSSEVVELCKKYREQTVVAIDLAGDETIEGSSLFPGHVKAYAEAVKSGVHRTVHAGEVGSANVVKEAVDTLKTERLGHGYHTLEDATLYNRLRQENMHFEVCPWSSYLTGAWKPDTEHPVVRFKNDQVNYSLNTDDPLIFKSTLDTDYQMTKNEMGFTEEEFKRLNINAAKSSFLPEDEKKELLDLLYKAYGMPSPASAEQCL
Can you tell me Ki for the items I'm about to list?

# example entries with known answers
{"compound": "CCCCCCC(C(C)O)n1cnc(C(=N)N)c1N (configuration not stated)", "observed result": "10.6 µM"}
{"compound": "CCCCCCC(C(C)O)n1cnc(C(=O)N(C)C)c1 (configuration not stated)", "observed result": "36.3 µM"}
{"compound": "CCCCCCC(C(C)O)n1cnc(C(=O)O)c1 (configuration not stated)", "observed result": "39 µM"}
{"compound": "CCCCCCC(C(C)O)n1cnc(C(=O)NC[C@H](C)O)c1 (some centres not stated)", "observed result": "6.9 µM"}
{"compound": "CCCCCCC(C(C)O)n1cnc(C(=O)OCC)c1N (configuration not stated)", "observed result": "347 µM"}
{"compound": "CCCCCCC(C(C)O)n1cnc(C(=O)NC)c1 (configuration not stated)", "observed result": "0.368 µM"}

Proceeding to the next compound to report its Ki.
// CCCCCCC(C(C)O)n1cnc(C(=N)N)c1 (configuration not stated) : Ki value = 2.56 µM
